Test system: CYP2C8 mRNA
Assay name: CYP induction in cultured human hepatocytes
Run parameters: human, cultured human hepatocytes
Property: EC50 at 72 h (µM)
Give the value, in units of µM, as a plain number.

State, in one line, measured EC50 at 72 h of `N#Cc1ccnc(N2C(=O)CC[C@H]2C(=O)N(c2cncc(F)c2)[C@H](C(=O)NC2CC(F)(F)C2)c2ccccc2Cl)c1`
8.1

----------
Target or test system: OCT2 (Homo sapiens, UniProt O15244)
Sequence (O15244 whole entry): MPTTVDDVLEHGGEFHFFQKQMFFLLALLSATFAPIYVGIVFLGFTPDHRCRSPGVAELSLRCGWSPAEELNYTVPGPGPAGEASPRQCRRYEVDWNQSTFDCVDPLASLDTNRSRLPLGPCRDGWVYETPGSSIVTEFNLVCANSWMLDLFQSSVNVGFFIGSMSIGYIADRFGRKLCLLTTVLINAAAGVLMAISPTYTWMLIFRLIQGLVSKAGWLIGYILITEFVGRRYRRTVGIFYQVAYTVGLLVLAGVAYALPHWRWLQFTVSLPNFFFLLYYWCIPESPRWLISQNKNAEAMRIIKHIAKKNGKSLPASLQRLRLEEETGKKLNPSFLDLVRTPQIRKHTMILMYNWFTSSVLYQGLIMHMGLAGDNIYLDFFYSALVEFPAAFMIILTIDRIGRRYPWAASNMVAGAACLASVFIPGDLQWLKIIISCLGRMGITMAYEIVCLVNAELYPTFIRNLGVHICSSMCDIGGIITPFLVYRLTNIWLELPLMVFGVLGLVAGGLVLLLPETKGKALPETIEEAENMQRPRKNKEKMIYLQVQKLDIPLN
Assay name: Transporter inhibition in transfected HEK293 cells
pIC50: −log10 of the molar value.
Property: pIC50

Answer with the recorded pIC50 of `N#Cc1ccnc(N2C(=O)CC[C@H]2C(=O)N(c2cncc(F)c2)[C@H](C(=O)NC2CC(F)(F)C2)c2ccccc2Cl)c1` only.
< 4.19

----------
System: CYP2C9 mRNA
Assay name: CYP induction in cultured human hepatocytes
Run parameters: human, cultured human hepatocytes
Property: EC50 at 72 h (µM)
Numbers only; they are read as µM.

Supply EC50 at 72 h value. Item: N#Cc1ccnc(N2C(=O)CC[C@H]2C(=O)N(c2cncc(F)c2)[C@H](C(=O)NC2CC(F)(F)C2)c2ccccc2Cl)c1 [Ivosidenib]
3.23

----------
Target or test system: human P‐gp (Homo sapiens, UniProt P08183)
Sequence (P08183 whole entry): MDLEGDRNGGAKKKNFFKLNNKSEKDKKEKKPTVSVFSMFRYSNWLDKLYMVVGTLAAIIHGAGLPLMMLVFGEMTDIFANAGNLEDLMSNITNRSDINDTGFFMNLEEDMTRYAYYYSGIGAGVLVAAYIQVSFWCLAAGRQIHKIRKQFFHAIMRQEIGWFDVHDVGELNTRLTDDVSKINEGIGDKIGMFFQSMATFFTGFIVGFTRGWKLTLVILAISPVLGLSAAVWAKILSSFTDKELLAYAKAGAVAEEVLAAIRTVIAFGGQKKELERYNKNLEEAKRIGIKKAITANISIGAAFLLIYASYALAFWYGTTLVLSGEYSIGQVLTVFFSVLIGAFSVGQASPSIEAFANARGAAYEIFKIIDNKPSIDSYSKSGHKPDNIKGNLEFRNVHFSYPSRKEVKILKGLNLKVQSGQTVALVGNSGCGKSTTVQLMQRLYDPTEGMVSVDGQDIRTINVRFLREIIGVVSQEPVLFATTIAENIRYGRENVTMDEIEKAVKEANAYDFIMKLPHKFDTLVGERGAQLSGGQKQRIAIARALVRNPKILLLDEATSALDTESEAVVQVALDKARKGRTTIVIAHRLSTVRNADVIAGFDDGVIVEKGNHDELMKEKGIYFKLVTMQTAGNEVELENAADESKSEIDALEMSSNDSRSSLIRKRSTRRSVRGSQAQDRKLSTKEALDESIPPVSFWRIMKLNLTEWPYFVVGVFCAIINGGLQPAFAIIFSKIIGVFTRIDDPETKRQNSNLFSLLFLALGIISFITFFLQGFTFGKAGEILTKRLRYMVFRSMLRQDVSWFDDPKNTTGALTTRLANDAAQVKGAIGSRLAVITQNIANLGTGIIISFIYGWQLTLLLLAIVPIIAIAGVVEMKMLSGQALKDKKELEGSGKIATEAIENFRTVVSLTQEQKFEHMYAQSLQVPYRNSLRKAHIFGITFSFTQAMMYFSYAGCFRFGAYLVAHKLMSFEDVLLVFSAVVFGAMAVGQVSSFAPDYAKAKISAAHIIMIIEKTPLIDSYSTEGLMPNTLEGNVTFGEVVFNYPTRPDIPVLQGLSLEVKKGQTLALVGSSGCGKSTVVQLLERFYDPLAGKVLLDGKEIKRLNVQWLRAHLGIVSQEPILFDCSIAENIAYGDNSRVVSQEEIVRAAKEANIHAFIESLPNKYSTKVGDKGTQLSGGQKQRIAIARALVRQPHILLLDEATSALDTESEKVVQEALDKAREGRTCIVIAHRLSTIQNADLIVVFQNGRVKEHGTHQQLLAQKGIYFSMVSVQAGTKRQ
Assay name: P-gp inhibition assay, bidirectional digoxin permeability in Caco-2 cells
Property: pIC50
The read-out pIC50 is expressed as -log10 of concentration in moles per litre.

// fetch pIC50 for `N#Cc1ccnc(N2C(=O)CC[C@H]2C(=O)N(c2cncc(F)c2)[C@H](C(=O)NC2CC(F)(F)C2)c2ccccc2Cl)c1` ; system: human P‐gp (Homo sapiens, UniProt P08183)
4.71

----------
Assay name: Venetoclax observed clinical PK
Assay type: in vivo
Run parameters: human, plasma, oral
Property: Vd

Report measured Vd; entry is `CC1(C)CCC(CN2CCN(c3ccc(C(=O)NS(=O)(=O)c4ccc(NCC5CCOCC5)c([N+](=O)[O-])c4)c(Oc4cnc5[nH]ccc5c4)c3)CC2)=C(c2ccc(Cl)cc2)C1`
0.36 to 1.78 L/kg

----------
Target or test system: OAT3 (Homo sapiens, UniProt Q8TCC7)
Sequence (Q8TCC7 whole entry): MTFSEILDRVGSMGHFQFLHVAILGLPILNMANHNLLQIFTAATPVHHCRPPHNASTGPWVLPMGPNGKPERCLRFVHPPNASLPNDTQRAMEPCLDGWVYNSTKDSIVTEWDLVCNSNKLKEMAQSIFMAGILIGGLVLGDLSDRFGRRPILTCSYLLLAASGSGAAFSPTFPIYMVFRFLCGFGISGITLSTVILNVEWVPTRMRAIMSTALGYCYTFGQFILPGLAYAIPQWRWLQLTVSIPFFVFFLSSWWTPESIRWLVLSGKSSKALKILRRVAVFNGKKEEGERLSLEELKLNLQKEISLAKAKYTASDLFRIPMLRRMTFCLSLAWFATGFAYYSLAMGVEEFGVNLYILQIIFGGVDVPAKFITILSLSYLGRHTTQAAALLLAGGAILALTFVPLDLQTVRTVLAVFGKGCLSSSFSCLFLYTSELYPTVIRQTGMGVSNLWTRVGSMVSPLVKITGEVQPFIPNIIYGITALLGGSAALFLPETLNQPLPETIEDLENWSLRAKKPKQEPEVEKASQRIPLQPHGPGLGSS
Assay name: Transporter inhibition in transfected HEK293 cells
Property: IC50
Provide a numeric answer, followed by its unit.

Fetch value of IC50 on OAT3 (Homo sapiens, UniProt Q8TCC7) for N#Cc1ccnc(N2C(=O)CC[C@H]2C(=O)N(c2cncc(F)c2)[C@H](C(=O)NC2CC(F)(F)C2)c2ccccc2Cl)c1 [Ivosidenib] .
0.322 µM

----------
Target or test system: OATP1B3 (Homo sapiens)
Sequence (Q9NPD5 1-702): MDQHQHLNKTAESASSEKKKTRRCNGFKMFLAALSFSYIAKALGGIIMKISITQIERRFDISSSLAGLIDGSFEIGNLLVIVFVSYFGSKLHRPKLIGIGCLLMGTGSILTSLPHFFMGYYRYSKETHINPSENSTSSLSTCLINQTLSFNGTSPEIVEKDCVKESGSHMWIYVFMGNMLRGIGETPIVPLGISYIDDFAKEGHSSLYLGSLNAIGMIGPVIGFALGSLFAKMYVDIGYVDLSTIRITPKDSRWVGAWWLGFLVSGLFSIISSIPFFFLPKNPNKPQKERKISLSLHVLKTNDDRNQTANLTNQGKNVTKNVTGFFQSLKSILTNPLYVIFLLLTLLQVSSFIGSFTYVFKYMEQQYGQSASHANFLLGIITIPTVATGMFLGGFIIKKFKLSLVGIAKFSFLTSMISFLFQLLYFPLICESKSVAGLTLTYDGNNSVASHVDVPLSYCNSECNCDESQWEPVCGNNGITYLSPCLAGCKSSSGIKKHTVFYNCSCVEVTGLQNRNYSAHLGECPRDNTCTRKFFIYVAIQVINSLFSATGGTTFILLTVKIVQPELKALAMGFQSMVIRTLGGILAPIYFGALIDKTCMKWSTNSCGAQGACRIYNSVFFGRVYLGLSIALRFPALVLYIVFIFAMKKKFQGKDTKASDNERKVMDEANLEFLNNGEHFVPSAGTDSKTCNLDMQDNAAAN
Assay name: Transporter inhibition in transfected HEK293 cells
Property: pIC50
Recall that pIC50 is obtained by taking minus log10 of the concentration measured in molar.

In one line, give reported pIC50 of the entry `N#Cc1ccnc(N2C(=O)CC[C@H]2C(=O)N(c2cncc(F)c2)[C@H](C(=O)NC2CC(F)(F)C2)c2ccccc2Cl)c1` .
4.64
